Each recorded value in this set is attributed to the kinase profiling compilation of Christmann-Franck et al. (2016).

Target: MST4 (human)
Experiment: radiometric filter-binding kinase assay, Kinase HotSpot
Conditions: compound 0.5 µM; ATP 10 µM
MEASURED ATTRIBUTE: residual activity (%)
Form entry: value (%) — number only.

Ask: Lookup: residual activity / MST4 (human) / `O=c1cc(N2CCNCC2)oc2c(-c3ccccc3)cccc12`
Result: 96.3

Ask: Now consider `CCCNC(=O)Nc1ccc(Oc2ncnc3cc(OC)c(OC)cc23)cc1Cl` .
Result: 86.9

Ask: Proceed to `O=C(Nc1ccc(Cl)cc1)c1ccccc1NCc1ccncc1`
Result: 90.9

Ask: Again, but for `C#Cc1cccc(Nc2ncnc3cc(OCCOC)c(OCCOC)cc23)c1`
Result: 106

Ask: // repeat for `COc1cc2ncnc(Nc3ccc(F)c(Cl)c3)c2cc1OCCCN1CCOCC1` and report
Result: 106

Ask: Also check `COc1cc2nccc(Oc3ccc(NC(=S)NC(=O)c4ccccc4C)cc3)c2cc1OC`
Result: 101

Further cases:
Ask: Provide the documented residual activity with MST4 (human) as the system for O=C(NC(NC(=S)Nc1ccc(F)c([N+](=O)[O-])c1)C(Cl)(Cl)Cl)C(c1ccccc1)c1ccccc1 (centres undefined)
Result: 89.3

Ask: Entry `Clc1ccc(Nc2nnc(Cc3ccncc3)c3ccccc23)cc1` please
Result: 118

Ask: Would you kindly repeat that for `Nc1nc(Nc2ccc(S(N)(=O)=O)cc2)nn1C(=O)c1c(F)cccc1F` ?
Result: 64.2

---

Catalogue of molecules with associated residual activity
Molecular target: CAMK2A (human) (UniProt Q9UQM7)
Sequence (Q9UQM7 whole entry, looked up): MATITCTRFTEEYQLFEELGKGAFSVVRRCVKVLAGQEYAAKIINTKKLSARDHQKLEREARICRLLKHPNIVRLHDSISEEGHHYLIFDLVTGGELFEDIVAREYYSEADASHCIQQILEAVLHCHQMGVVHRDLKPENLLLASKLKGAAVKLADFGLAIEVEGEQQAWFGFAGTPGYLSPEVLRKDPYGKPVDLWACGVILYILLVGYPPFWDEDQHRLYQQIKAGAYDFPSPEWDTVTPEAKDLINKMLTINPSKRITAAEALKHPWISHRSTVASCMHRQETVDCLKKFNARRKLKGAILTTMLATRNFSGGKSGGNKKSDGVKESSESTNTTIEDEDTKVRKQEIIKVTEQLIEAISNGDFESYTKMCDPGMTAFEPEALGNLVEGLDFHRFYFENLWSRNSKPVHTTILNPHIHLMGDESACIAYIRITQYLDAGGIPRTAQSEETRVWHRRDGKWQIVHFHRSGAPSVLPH
Assay: radiometric filter-binding kinase assay, Kinase HotSpot
Settings: compound 0.5 µM; ATP 10 µM
Report the value in % with no unit label.

Ask: Item `CCCNC(=O)Nc1ccc(Oc2ncnc3cc(OC)c(OC)cc23)cc1Cl` has what recorded residual activity?
Result: 97.5

Further cases:
Ask: I have this molecule here, `O=c1cc(-c2cccc3c2Sc2ccccc2S3)oc(N2CCOCC2)c1` , and I need its recorded residual activity.
Result: 100

Ask: Entry `Nc1nc(Nc2ccc(S(N)(=O)=O)cc2)nn1C(=O)c1c(F)cccc1F` please
Result: 104

---

Target: CDK4 CCND3 (human) (UniProt P30281+P11802)
Sequence (P11802 whole entry, looked up): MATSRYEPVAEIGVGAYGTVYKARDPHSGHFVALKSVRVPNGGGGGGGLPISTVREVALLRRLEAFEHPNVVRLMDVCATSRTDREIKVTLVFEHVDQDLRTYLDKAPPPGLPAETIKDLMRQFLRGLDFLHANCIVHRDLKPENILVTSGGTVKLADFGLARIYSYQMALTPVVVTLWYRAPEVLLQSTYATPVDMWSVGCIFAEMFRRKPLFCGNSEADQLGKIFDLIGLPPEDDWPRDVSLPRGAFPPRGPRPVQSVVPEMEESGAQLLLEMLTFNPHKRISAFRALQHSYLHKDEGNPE
Sequence (P30281 whole entry, looked up): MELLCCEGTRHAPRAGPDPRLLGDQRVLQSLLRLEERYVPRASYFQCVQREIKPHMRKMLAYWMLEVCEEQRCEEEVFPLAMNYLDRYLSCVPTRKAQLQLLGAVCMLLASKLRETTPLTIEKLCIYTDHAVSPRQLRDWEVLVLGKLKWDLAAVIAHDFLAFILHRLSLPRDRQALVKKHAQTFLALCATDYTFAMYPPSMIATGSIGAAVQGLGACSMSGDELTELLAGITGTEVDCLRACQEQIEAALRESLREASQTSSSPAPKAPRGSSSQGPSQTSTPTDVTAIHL
Experiment: radiometric filter-binding kinase assay, Kinase HotSpot
Settings: compound 0.5 µM; ATP 10 µM
MEASURED ATTRIBUTE: residual activity (%)
Response body: numeric value in %, unit text excluded.

Ask: Query for CDK4 CCND3 (human) (UniProt P30281+P11802): what residual activity does the record show for CS(=O)c1ccc(-c2nc(-c3ccc(F)cc3)c(-c3ccncc3)[nH]2)cc1 (stereo not given) ?
Result: 105

Ask: And the next one, `Cc1ccc(NC(=O)c2ccc(CN3CCN(C)CC3)cc2)cc1Nc1nc(-c2cccnc2)cs1` ?
Result: 115

Ask: Would you kindly repeat that for `O=c1cc(-c2cccc3c2Sc2ccccc2S3)oc(N2CCOCC2)c1` ?
Result: 99.2

Ask: Check `Nc1nc(Nc2ccc(S(N)(=O)=O)cc2)nn1C(=O)c1c(F)cccc1F` too.
Result: 34.7

Ask: Now the molecule `COc1ccc(-c2cnc3c(-c4ccsc4)cnn3c2)cc1`
Result: 82.9

Ask: And for `CC(C)(C)c1nc2c3ccc(F)cc3c3c(=O)[nH]ccc3c2[nH]1` ?
Result: 95.2

Others:
Ask: Please state recorded residual activity (tested on CDK4 CCND3 (human) (UniProt P30281+P11802)) of `Oc1ccc(-c2nc(-c3ccc(F)cc3)c(-c3ccncc3)[nH]2)cc1`
Result: 104

Ask: Follow-up item: `CCN1/C(=C/C(C)=O)Sc2ccc(OC)cc21`
Result: 97.4

Ask: Could you do the same for `COc1cc2ncnc(Nc3ccc(F)c(Cl)c3)c2cc1OCCCN1CCOCC1` , please?
Result: 101

Ask: Also `Cc1cc(Nc2cc(N3CCN(C)CC3)nc(Sc3ccc(NC(=O)C4CC4)cc3)n2)[nH]n1` , if possible.
Result: 99.2
